# Tested on: EU-1
# method: WST cytotoxicity assay, cancer cell EU-1
# Format: cell-based, human
# measurement-parameters: Homo sapiens, EU-1, EU-1; no other cell line named in the cell; read-out: Cancer cell (EU-1) cytotoxicity IC50
Catalogue of log10 of IC50 readings, one per entry.
result-type: log10 of IC50 (log10 of the value in µM)

[[record]]
compound = "CC(C)C(=O)c1ccc(C2Nc3ccc(S(=O)(=O)Nc4cccc5c4COC5=O)cc3[C@H]3OCC[C@@H]23)cc1 (some centres unmarked) [Compound 69L146]"
observed_measurement = 0.58

[[record]]
compound = "Cc1ccc(NS(=O)(=O)c2ccc3c(c2)[C@H]2C=CC[C@H]2[C@H](c2ccc(C(=O)C(C)C)cc2)N3)cc1C [Compound 69L80]"
observed_measurement = 0.42

[[record]]
compound = "Cc1cc(NS(=O)(=O)c2ccc3c(c2)C2OCC[C@H]2C(c2ccc(C(=O)C(C)C)cc2)N3)ccc1C(F)(F)F (some centres unmarked) [Compound 69L89]"
observed_measurement = 0.86

[[record]]
compound = "CC(C)C(=O)c1ccc(C2Nc3ccc(S(=O)(=O)Nc4cccc(N(C)C)c4)cc3[C@H]3OCC[C@@H]23)cc1 (some centres unmarked) [Compound 69L141]"
observed_measurement = 0.88

[[record]]
compound = "Cc1ccc(NS(=O)(=O)c2ccc3c(c2)[C@H]2OCC[C@H]2C(c2ccc(Br)cc2)N3)cc1C (some centres unmarked) [Compound 69L8]"
observed_measurement = 0.56

[[record]]
compound = "O=S(=O)(Nc1ccc2c(c1)CCO2)c1ccc2c(c1)[C@H]1OCC[C@H]1C(c1ccccc1)N2 (some centres unmarked) [Compound 69L118]"
observed_measurement = -0.82

[[record]]
compound = "CC(=O)c1cccc(C2CC(=O)c3cc(S(=O)(=O)Nc4ccc5c(c4)COC5)ccc3N2)c1 (centres unmarked) [Compound 69L124]"
observed_measurement = -0.34

[[record]]
compound = "CC(=O)c1cccc(NS(=O)(=O)c2ccc3c(c2)[C@H]2OCC[C@H]2C(c2ccc(C(=O)C(C)C)cc2)N3)c1 (stereo in doubt) [Compound 69L102]"
observed_measurement = -0.64

[[record]]
compound = "CC(=O)c1ccc([C@@H]2Nc3ccc(S(=O)(=O)Nc4ccc(C)c(C)c4)cc3[C@H]3C=CC[C@H]32)cc1 [Compound 69L48]"
observed_measurement = 0.58

[[record]]
compound = "COc1cccc(NS(=O)(=O)c2ccc3c(c2)C(=O)CC(c2cccc(C(=O)N(C)C)c2)N3)c1 (centres unmarked) [Compound 69L159]"
observed_measurement = -0.19

[[record]]
compound = "O=S(=O)(Nc1ccc2c(c1)CCO2)c1ccc2c(c1)C1OCC[C@H]1C(c1ccc3c(c1)CCO3)N2 (some centres unmarked) [Compound 69L128]"
observed_measurement = 0.12

[[record]]
compound = "Cc1ccc(NS(=O)(=O)c2ccc3[nH]c(-c4ccc(C(=O)C(C)C)cc4)c(I)c(=O)c3c2)cc1C [Compound 69L97]"
observed_measurement = 0.97

[[record]]
compound = "CCc1cccc(NS(=O)(=O)c2ccc3c(c2)C(=O)C(F)C(c2cccc(C(=O)C(C)C)c2)N3)c1 (centres unmarked) [Compound 69L168]"
observed_measurement = -0.47

[[record]]
compound = "CC(C)C(=O)c1ccc(C2Nc3ccc(S(=O)(=O)Nc4cccc(C(C)C)c4)cc3[C@H]3OCC[C@@H]23)cc1 (some centres unmarked) [Compound 69L134]"
observed_measurement = 0.81

[[record]]
compound = "CC(C)C(=O)c1cccc(C2CC(=O)c3cc(S(=O)(=O)Nc4ccc(Cl)c(Cl)c4)ccc3N2)c1 (centres unmarked) [Compound 69L145]"
observed_measurement = 0.54

[[record]]
compound = "CC(=O)c1ccc(NS(=O)(=O)c2ccc3c(c2)[C@H]2OCC[C@H]2C(c2ccc(C(=O)C(C)C)cc2)N3)cc1 (some centres unmarked) [Compound 69L98]"
observed_measurement = 0.18

[[record]]
compound = "COC(=O)c1ccc(C2Nc3ccc(S(=O)(=O)Nc4ccc(C)c(C)c4)cc3C3NCC[C@@H]23)cc1 (some centres unmarked) [Compound 69L34]"
observed_measurement = 0.54

[[record]]
compound = "Cc1ccc(NS(=O)(=O)c2ccc3c(c2)C2NCC[C@H]2[C@@H](c2ccc(S(C)(=O)=O)cc2)N3)cc1C (some centres unmarked) [Compound 69L43]"
observed_measurement = 1.08

[[record]]
compound = "CCc1cccc(NS(=O)(=O)c2ccc3c(c2)[C@H]2OCC[C@H]2C(c2ccc(C(=O)C(C)C)cc2)N3)c1 (some centres unmarked) [Compound 69L148]"
observed_measurement = 0.31


====

Collected pIC50 values appear next to each entry.
# Test system: EU-1
# method: WST cytotoxicity assay, cancer cell EU-1
# Type: cell-based, human
# measurement-parameters: Homo sapiens, EU-1, EU-1; no other cell line named in the cell; read-out: Cancer cell (EU-1) cytotoxicity IC50
pIC50: −log10 of the molar value.
result-type: pIC50

[[record]]
compound = "Cc1ccc(N(C)S(=O)(=O)c2ccc3c(c2)[C@H]2OCC[C@H]2C(c2ccc(C(=O)C(C)C)cc2)N3C)cc1C (stereo in doubt) [Compound 69L131]"
test_target = "EU-1"
result_type = "pIC50"
observed_measurement = 5.94

[[record]]
compound = "Cc1cc(NS(=O)(=O)c2ccc3c(c2)C(=O)CC(c2ccc(C(=O)C(C)C)cc2)N3)ccc1F (stereo not drawn) [Compound 69L108]"
test_target = "EU-1"
result_type = "pIC50"
observed_measurement = 6.38

[[record]]
compound = "CC(=O)Nc1ccc(C2Nc3ccc(S(=O)(=O)Nc4ccc(C)c(C)c4)cc3C3OCC[C@@H]23)cc1 (stereo partly drawn) [Compound 69L51]"
test_target = "EU-1"
result_type = "pIC50"
observed_measurement = 5.35


====

# test-target: MDM2 (Homo sapiens)
# Construct: ubiquitination of endogenous MDM2 in EU-1 cells; endogenous in cells; host or cells: EU-1 (ALL) cells
# Sequence (Q00987 whole entry): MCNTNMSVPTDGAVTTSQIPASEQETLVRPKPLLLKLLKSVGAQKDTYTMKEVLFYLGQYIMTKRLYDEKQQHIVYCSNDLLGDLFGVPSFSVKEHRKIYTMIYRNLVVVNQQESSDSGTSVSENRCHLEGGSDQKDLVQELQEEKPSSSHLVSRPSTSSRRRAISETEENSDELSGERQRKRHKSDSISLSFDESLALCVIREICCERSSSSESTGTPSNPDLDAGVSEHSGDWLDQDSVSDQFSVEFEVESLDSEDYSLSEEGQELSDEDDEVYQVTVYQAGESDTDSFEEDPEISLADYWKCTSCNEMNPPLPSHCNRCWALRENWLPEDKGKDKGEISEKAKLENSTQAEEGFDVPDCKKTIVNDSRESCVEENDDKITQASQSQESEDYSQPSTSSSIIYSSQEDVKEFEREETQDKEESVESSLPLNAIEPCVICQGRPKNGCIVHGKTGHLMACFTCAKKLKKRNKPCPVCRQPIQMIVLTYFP
# method: MDM2 reduction / expression (Western blot)
# Type: cell-based
# measurement-parameters: words or +/− grades, key not given
result-type: MDM2 reduction

[[record]]
compound = "CC(C)C(=O)c1ccc(C2Nc3ccc(S(=O)(=O)Nc4ccc5c(c4)CCO5)cc3[C@H]3OCC[C@@H]23)cc1 (some centres unmarked)"
result_type = "MDM2 reduction"
observed_measurement = "No MDM2"

[[record]]
compound = "O=S(=O)(Nc1ccc(Cl)c(Cl)c1)c1ccc2nc(C3CCCCC3)ccc2c1"
result_type = "MDM2 reduction"
observed_measurement = "No MDM2"

[[record]]
compound = "Cc1ccc(NS(=O)(=O)c2ccc3c(c2)[C@H]2OCC[C@H]2[C@H](C2CCC(C(C)C)CC2)N3)cc1C (some centres unmarked)"
result_type = "MDM2 reduction"
observed_measurement = "inhibition"

[[record]]
compound = "Cc1cccc(NS(=O)(=O)c2ccc3c(c2)C(=O)CC(c2ccc(C(=O)C(C)C)cc2)N3)c1 (centres unmarked)"
result_type = "MDM2 reduction"
observed_measurement = "inhibition"

[[record]]
compound = "Cc1ccc(NS(=O)(=O)c2ccc3c(c2)C(=O)CC(c2cccc(C(=O)C(C)C)c2)N3)cc1C (centres unmarked)"
result_type = "MDM2 reduction"
observed_measurement = "inhibition"

[[record]]
compound = "CC(C)C(=O)c1ccc(C2Nc3ccc(S(=O)(=O)Nc4ccccc4)cc3[C@H]3OCC[C@@H]23)cc1 (some centres unmarked)"
result_type = "MDM2 reduction"
observed_measurement = "No MDM2"

[[record]]
compound = "Cc1cc(NS(=O)(=O)c2ccc3c(c2)[C@H]2OCC[C@H]2C(c2ccc(C(=O)C(C)C)cc2)N3)ccc1F (some centres unmarked)"
result_type = "MDM2 reduction"
observed_measurement = "No MDM2"

[[record]]
compound = "Cc1ccc(NS(=O)(=O)c2ccc3c(c2)[C@H]2OCC[C@H]2C(c2ccc(C(=O)C4CCCCC4)cc2)N3)cc1C (some centres unmarked)"
result_type = "MDM2 reduction"
observed_measurement = "No MDM2"

[[record]]
compound = "CC(=O)c1cccc(NS(=O)(=O)c2ccc3c(c2)[C@H]2OCC[C@H]2C(c2ccc(C(=O)C(C)C)cc2)N3)c1 (stereo in doubt)"
result_type = "MDM2 reduction"
observed_measurement = "inhibition"

[[record]]
compound = "Cc1ccc(NS(=O)(=O)c2ccc3c(c2)C2OCC[C@H]2C(c2ccc(C(=O)C(C)C)cc2)N3)cc1C (some centres unmarked) [Compound 69L96]"
result_type = "MDM2 reduction"
observed_measurement = "inhibition"

[[record]]
compound = "Cc1ccc(NS(=O)(=O)c2ccc3c(c2)C2OCC[C@H]2C(c2cccc(C(=O)C(C)C)c2)N3)cc1C (some centres unmarked)"
result_type = "MDM2 reduction"
observed_measurement = "No MDM2"

[[record]]
compound = "Cc1ccc(NS(=O)(=O)c2ccc3c(c2)[C@H]2OCC[C@H]2C(c2ccc(C(=O)C(C)C)cc2)N3)cc1Cl (some centres unmarked)"
result_type = "MDM2 reduction"
observed_measurement = "No MDM2"

[[record]]
compound = "Cc1ccc(NS(=O)(=O)c2ccc3c(c2)C(=O)CC(c2ccc(C(=O)C(C)C)cc2)N3)cc1Cl (centres unmarked)"
result_type = "MDM2 reduction"
observed_measurement = "inhibition"

